The values you see were collected from ChEMBL document CHEMBL1136466.

SUBJECT OF TEST: Beta-secretase 1 (Homo sapiens, UniProt P56817)
Sequence (P56817 whole entry): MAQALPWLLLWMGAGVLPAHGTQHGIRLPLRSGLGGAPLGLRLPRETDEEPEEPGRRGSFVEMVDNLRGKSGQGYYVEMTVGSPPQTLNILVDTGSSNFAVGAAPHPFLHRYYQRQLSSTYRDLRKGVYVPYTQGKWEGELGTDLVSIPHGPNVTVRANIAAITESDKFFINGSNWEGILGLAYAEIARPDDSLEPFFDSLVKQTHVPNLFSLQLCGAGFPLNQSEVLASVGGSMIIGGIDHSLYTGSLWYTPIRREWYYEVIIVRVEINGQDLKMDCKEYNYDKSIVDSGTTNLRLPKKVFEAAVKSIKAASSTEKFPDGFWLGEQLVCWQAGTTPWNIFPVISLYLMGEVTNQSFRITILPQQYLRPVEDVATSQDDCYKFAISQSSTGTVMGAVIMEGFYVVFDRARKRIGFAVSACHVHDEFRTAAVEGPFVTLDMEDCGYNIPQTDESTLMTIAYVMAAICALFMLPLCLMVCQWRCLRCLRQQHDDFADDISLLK
ASSAY INFO: Inhibition of beta-secretase 1 (BACE) was determined at the concentration of 2 uM
Starred links: 1 amine or outer side, 2 acyl side, 3 side chain; linkers in the order of their positions; H or OH if unused. Non-standard residues stand in square brackets, D forms with d. Residues, ends and D or L forms follow the SMILES beside them. β3hPhe(2R-OH) = O=C([C@H](O)[C@H](Cc1ccccc1)N[*:1])[*:2]
QUANTITY: inhibition (%)
# number only, unit % dropped from output

Entry CC(C)C[C@H](NC(=O)[C@@H](NC(=O)[C@@H](N)CCC(=O)O)C(C)C)C(=O)N[C@@H](Cc1ccccc1)[C@@H](O)C(=O)N[C@@H](CC(=O)O)C(=O)N[C@@H](C)C(=O)N[C@@H](CCC(N)=O)C(=O)N[C@@H](Cc1ccccc1)C(=O)O (H-EVL[β3hPhe(2R-OH)]DAQF-OH) — recorded inhibition = 56

Entry CC(C)C[C@H](NC(=O)[C@@H](NC(=O)[C@@H](N)CCC(=O)O)C(C)C)C(=O)N[C@@H](Cc1ccccc1)[C@@H](O)C(=O)N1CSC(C)(C)C1C(=O)N[C@@H](C)C(=O)N[C@@H](CCC(=O)O)C(=O)N[C@@H](Cc1ccccc1)C(=O)O (some centres not stated) — recorded inhibition = 34
